assay: Half-life in Sprague-Dawley rat at 1 mg/kg, iv; assay type: ADME, organism-based; settings: in vivo
reported property: half-life
Answer format reminder: number followed by unit.

half-life recorded for this compound, `C=CC(=O)Nc1cc(Nc2ncc(C(=O)Nc3cc(NC(=O)c4cc(OC)c(OC)c(OC)c4)ccc3C)c(NC)n2)ccc1C` , is 48 min

// provenance: ChEMBL document CHEMBL4007402
